# Assay procedure: Plasma concentration in Brown Norway rat at 10 mg/kg, po administered via gavage measured at 24 hrs post dose by HPLC-MS/MS analysis
# Format: ADME, organism-based
Measured quantity: concentration at 24 h (nM)
Answers are plain numbers, in nM.

# lookup: concentration at 24 h of N[C@H](CO)c1cccc(-c2cccc(COc3ccccc3CC(=O)O)c2)c1
34

====

# Assay procedure: AUC (0 to 7 hrs) in C57BL/6 mouse at 1 mg/kg, iv by HPLC-MS/MS analysis
# Type: ADME, organism-based
# Set-up: dose 1 mg/kg, time < 7 hr, route intravenous
# Experimental setup: C57BL/6, mouse, in vivo
I'd be grateful if you could share measured AUC(0-t) at 7 h for these entries.
Numbers only, in µM·h.

Item under review: N[C@H](CCO)c1cccc(-c2cccc(COc3ccccc3CC(=O)O)c2)c1 . Reported AUC(0-t) at 7 h?
4.97

Please look at the following compound next.
# get_value(readout='AUC(0-t) at 7 h', item= N[C@H](CO)c1cccc(-c2cccc(COc3ccccc3CC(=O)O)c2)c1 )
16.1

====

# Assay procedure: Drug level in Brown Norway rat posterior eye cup at 10 mg/kg, po administered via gavage measured at 24 hrs post dose by HPLC-MS/MS analysis
# Assay type: ADME, organism-based
# Experimental setup: read-out: Drug uptake
Measured quantity: concentration at 24 h (nM)
Give bare numbers, in nM.

Give the measured concentration at 24 h of N[C@H](CO)c1cccc(-c2cccc(COc3ccccc3CC(=O)O)c2)c1 .
290

====

# Assay procedure: Cmax in Beagle dog at 10 mg/kg, po administered via gavage by HPLC-MS/MS analysis
# Type: ADME, organism-based, Canis lupus familiaris
# Set-up: dose 10 mg/kg, route oral
# Experimental setup: in vivo
Measured quantity: Cmax (µM)
Numbers only, in µM.

Consider the molecule N[C@H](CO)c1cccc(-c2cccc(COc3ccccc3CC(=O)O)c2)c1 and give its measured Cmax.
16.5

====

# Assay procedure: Solubility of the compound at pH 6.8
# Format: physicochemical
# Experimental setup: buffer
Measured quantity: solubility (µM)
Answers are plain numbers, in µM.

// solubility lookup, key: NCc1cccc(-c2cccc(C(=O)Nc3ccccc3CC(=O)O)c2)c1
220

====

# Assay procedure: Clearance in C57BL/6 mouse at 1 mg/kg, iv or 10 mg/kg, po administered via gavage by HPLC-MS/MS analysis
# Type: ADME, organism-based
# Experimental setup: in vivo
hey, just use satisfied if measured clearance is less than 9 mL/min/kg, otherwise not satisfied

Is it true that clearance reported for N[C@H](CO)c1cccc(-c2cccc(COc3ccccc3CC(=O)O)c2)c1 is less than 9 mL/min/kg?
satisfied

Next:
Hello, I'm reviewing records and need to know if clearance of NCc1cccc(-c2cccc(COc3ccccc3CC(=O)O)c2)c1 is below 9 mL/min/kg. Could you check?
not satisfied

clearance under 9 mL/min/kg? Item: NCc1cccc(-c2cccc(C(=O)Nc3ccccc3CC(=O)O)c2)c1
not satisfied

Just wondering, is clearance of N[C@H](CO)c1cccc(-c2cc(Br)cc(COc3ccccc3CC(=O)O)c2)c1 below 9 mL/min/kg?
satisfied

Does N[C@H](CCO)c1cccc(-c2cccc(COc3ccccc3CC(=O)O)c2)c1 have clearance strictly under 9 mL/min/kg?
satisfied

====

# Assayed system: UniProt P03951
# Sequence (P03951 19-387 limits assumed): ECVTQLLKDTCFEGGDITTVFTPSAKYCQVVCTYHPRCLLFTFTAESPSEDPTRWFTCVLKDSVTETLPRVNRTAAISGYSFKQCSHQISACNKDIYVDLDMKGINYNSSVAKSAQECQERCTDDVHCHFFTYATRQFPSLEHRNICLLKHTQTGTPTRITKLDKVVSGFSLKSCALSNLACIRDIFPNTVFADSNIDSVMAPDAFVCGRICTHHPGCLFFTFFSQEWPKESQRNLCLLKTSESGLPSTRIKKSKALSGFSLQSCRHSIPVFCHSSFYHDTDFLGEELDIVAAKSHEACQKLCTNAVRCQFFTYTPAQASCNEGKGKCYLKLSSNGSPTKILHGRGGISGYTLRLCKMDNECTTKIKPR
# Sequence (P03951 388-625 limits assumed): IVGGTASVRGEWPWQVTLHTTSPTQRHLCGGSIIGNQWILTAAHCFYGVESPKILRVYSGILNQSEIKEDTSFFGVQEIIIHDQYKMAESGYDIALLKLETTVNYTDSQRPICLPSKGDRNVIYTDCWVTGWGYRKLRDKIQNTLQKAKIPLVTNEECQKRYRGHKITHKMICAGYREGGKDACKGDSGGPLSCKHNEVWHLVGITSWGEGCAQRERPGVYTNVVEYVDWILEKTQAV
Measured quantity: IC50 (nM)
Give bare numbers, in nM.

Please give the measured IC50 for this molecule: NCc1cccc(-c2cccc(C(=O)Nc3ccccc3CC(=O)O)c2)c1
2800
